- Test System: recombinant human AMCase (Homo sapiens, UniProt Q9BZP6)
- Sequence (Q9BZP6 22-476): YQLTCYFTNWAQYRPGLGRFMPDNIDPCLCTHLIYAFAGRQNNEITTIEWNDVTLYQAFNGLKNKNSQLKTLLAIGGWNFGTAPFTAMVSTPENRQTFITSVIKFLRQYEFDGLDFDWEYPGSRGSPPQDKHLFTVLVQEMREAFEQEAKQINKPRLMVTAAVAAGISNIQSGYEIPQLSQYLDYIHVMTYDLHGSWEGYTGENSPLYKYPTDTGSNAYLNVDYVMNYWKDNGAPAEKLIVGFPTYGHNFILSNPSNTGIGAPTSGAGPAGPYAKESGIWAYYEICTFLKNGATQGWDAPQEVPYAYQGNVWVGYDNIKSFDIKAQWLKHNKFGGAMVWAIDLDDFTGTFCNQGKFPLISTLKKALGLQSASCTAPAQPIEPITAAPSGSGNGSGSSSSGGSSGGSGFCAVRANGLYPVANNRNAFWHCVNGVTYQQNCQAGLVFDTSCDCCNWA
- Protocol Notes: Human AMCase Activity Assay
- Reported Conditions: recombinant hAMCase, 4-methylumbelliferyl B-D-N,N′-diacetylchitobioside substrate, citrate buffer pH 5.2, 37° C., 60 minutes
Reported IC50 values for a set of compounds

Answered examples (4):
CNC(=O)c1ccc(CN(CCc2ccc(Br)cc2)C2CCN(c3nc(N)n[nH]3)CC2)cc1 [Example 35]
1 to 10 nM
Nc1n[nH]c(N2CCC(N(CCc3ccc(Cl)cc3)Cc3ccc(Cl)c(C(=O)O)c3)CC2)n1 [Example 7]
1 to 10 nM
CC(C)C(=O)NS(=O)(=O)c1ccc(CN(CCc2ccc(Br)cc2)C2CCN(c3nc(N)n[nH]3)CC2)cc1 [Example 17]
1 to 10 nM
CS(=O)(=O)Nc1ccccc1CN(CCc1ccc(Cl)cc1)C1CCN(c2nc(N)n[nH]2)CC1 [Example 31]
10 to 100 nM

Request: Need IC50, item Nc1n[nH]c(N2CCC(N(CCc3ccc(Cl)cc3)CC(=O)Nc3ccccc3)CC2)n1 [Example 21]
Result: 100 to 1000 nM

From: patent US9440953B2
